target-of-assay: Cytochrome P450 2D6 (Homo sapiens)
procedure-summary: Cytochrome panel assay with activity outcomes
experimental-parameters: recombinant CYP, pro-luciferin dealkylation, luminescence, p450-cyp2d6; series mostly up to 57.1 µM
In all, about 16,000 compounds went through this assay and about 2,600 (16%) were called active. Not shown: some 20% with an inconclusive outcome. A selection follows.
reported-metric: AC50

The cases that follow already have their AC50 on record.
compound | target-of-assay | reported-metric | assay-result
NCCSCc1ccccc1Cl | Cytochrome P450 2D6 (Homo sapiens) | AC50 | 3160 nM (active)
O=C(O)Cn1c(-c2ccccc2)nc2ccccc21 | Cytochrome P450 2D6 (Homo sapiens) | AC50 | inactive
O=C(CSCc1ccccc1Cl)NN1C(=O)c2ccccc2C1=O | Cytochrome P450 2D6 (Homo sapiens) | AC50 | inactive
O=c1c2ccc([N+](=O)[O-])c3cccc(c32)c2nc3ccccc3n12 | Cytochrome P450 2D6 (Homo sapiens) | AC50 | inactive
O=C(/C=C\c1ccc2c(c1)OCO2)c1ccc(F)cc1 | Cytochrome P450 2D6 (Homo sapiens) | AC50 | 2000 nM (active)

[ask] Can you share its AC50? I mean this compound: `C1CCC(N=C(NC23CC4CC(CC(C4)C2)C3)N2CCOCC2)CC1`
[reply] 631 nM (active)

[ask] Can you share its AC50? I mean this compound: COCCCN1C(=O)C(=O)/C(=C(/O)c2ccc(OC)cc2C)C1c1cccnc1 (stereo unspecified)
[reply] inactive
